Experiment: Hematology assays after oral gavage in CD-1 mice (Example 7)
Type: in vivo
Settings: 500 mg/kg oral gavage once daily for 4 weeks
Method: Groups of 7-8 week old male CD-1 mice were given an oral gavage dose once daily for 4 weeks of 500 mg/kg of Ionis SMAD7 oligonucleotides. Each group contained 8 mice. One group of male CD-1 mice was administered saline by oral gavage daily. Blood obtained from all mouse groups was measured by an ADVIA2120i hematology analyzer (Siemens, USA) for measurements of the various blood cells, as well as other hematology markers. […]
assay.endpoint: Eosinophils

## Input Quick one: Eosinophils of 830121 (AGAATCAAGCCCTGGC; 3-10-3 cEt gapmer, further chemistry not given here) [compound 830121] ?
## Output 0.08 10^3/μL

## Input Further, for 798781 (CGTAAGATTCACAGCA; 3-10-3 cEt gapmer, further chemistry not given here) [compound 798781] ?
## Output 0.26 10^3/μL

## Input Entry 829994 (GGAGGCAGGGCCGCGA; 3-10-3 cEt gapmer, further chemistry not given here) [compound 829994] please
## Output 0.09 10^3/μL

## Input Moving on to the next substance: 830037 (antisense CTATTGGCTGATCTGG; 3-10-3 cEt gapmer, further chemistry not given here) [compound 830037]
## Output 0.15 10^3/μL

## Input Please do the same for 790615 (CCAATGAGAATGCTTC; 3-10-3 cEt gapmer, further chemistry not given here) [compound 790615] as well.
## Output 0.11 10^3/μL

## Input Also 830025 (antisense TTTGTAAATCGAAAGC; 3-10-3 cEt gapmer, further chemistry not given here) [compound 830025] , if possible.
## Output 0.08 10^3/μL

---

Would you mind telling me the reported % inhibition of SMAD7 mRNA expression of each entry?
Test system: human SMAD7 mRNA
Assay: Antisense inhibition of human SMAD7 mRNA expression in Hep3B cells by 5-10-5 MOE gapmers, single concentration, electroporation, RT-PCR (Example 1, Study 1 and 2)
Assay type: cell-based
Settings: electroporation, 15,000 nM antisense oligonucleotide (Study 2), 5-10-5 MOE gapmers targeting SEQ ID NO: 1 and 2
Strand notation (5' to 3'): a small letter for the sugar, then the base; units joined by * are phosphorothioate-linked, units joined directly phosphodiester-linked; [ ] holds rarer units or linkages, { } end groups; capitals alone tell only the bases. e = 2'-O-(2-methoxyethyl) (MOE); [5mC] = 5-methylcytosine; d = 2'-deoxy (DNA)
Field: value (include unit after the number)

## Input Which % inhibition of SMAD7 mRNA expression is reported for this substance? 771536 (antisense eA*eG*e[5mC]*eG*eA*dA*dA*d[5mC]*dA*dA*dA*dA*d[5mC]*dA*dG*eA*eA*e[5mC]*eA*e[5mC]) [compound 771536]
## Output 0%

## Input Follow-up entry: 771490 (antisense e[5mC]*eT*eT*e[5mC]*eA*d[5mC]*dA*dA*dA*dG*d[5mC]*dT*dG*dA*dT*e[5mC]*eT*eG*e[5mC]*eA) [compound 771490]
## Output 44%

## Input Same lookup for 771499 (antisense eG*e[5mC]*eT*eA*e[5mC]*d[5mC]*dG*dG*d[5mC]*dT*dG*dT*dT*dG*dA*eA*eG*eA*eT*eG) [compound 771499] , please.
## Output 1%

## Input Subsequent entry: 771840 (antisense eA*eG*eA*eT*eG*d[5mC]*dT*dT*d[5mC]*dT*dA*dG*dG*dT*dG*eA*eA*e[5mC]*e[5mC]*eA) [compound 771840]
## Output 16%

## Input Queued: 771381 (antisense eA*eA*eA*eA*e[5mC]*dA*d[5mC]*d[5mC]*dA*dA*dG*dA*dT*d[5mC]*d[5mC]*eA*eT*e[5mC]*eT*eT) [compound 771381]
## Output 0%

## Input Then what about the substance 771594 (antisense eG*eG*e[5mC]*e[5mC]*eA*d[5mC]*dT*dA*dG*d[5mC]*dA*dG*dG*d[5mC]*dT*e[5mC]*eG*e[5mC]*eT*eG) [compound 771594] ?
## Output 37%

## Input Note, next up: 771380 (antisense eA*e[5mC]*e[5mC]*eA*eA*dG*dA*dT*d[5mC]*d[5mC]*dA*dT*d[5mC]*dT*dT*eT*eA*eA*eG*e[5mC]) [compound 771380]
## Output 0%

## Input One more substance: 771809 (antisense eA*e[5mC]*e[5mC]*eT*eG*dA*dG*dT*d[5mC]*d[5mC]*d[5mC]*d[5mC]*d[5mC]*dA*dA*eA*eG*eT*e[5mC]*e[5mC]) [compound 771809]
## Output 7%

## Input Okay, and 771474 (antisense eG*e[5mC]*eA*eG*e[5mC]*d[5mC]*dG*dA*dT*dT*dT*dT*dG*d[5mC]*dT*e[5mC]*e[5mC]*eG*e[5mC]*eA) [compound 771474] ?
## Output 56%

## Input Then 771786 (antisense eA*eG*e[5mC]*eT*e[5mC]*dA*dA*dA*d[5mC]*dT*dT*dT*dG*dA*dA*eG*e[5mC]*e[5mC]*eT*eT) [compound 771786] ?
## Output 56%

## Input Input 771785 (antisense eA*e[5mC]*eT*eT*eT*dG*dA*dA*dG*d[5mC]*d[5mC]*dT*dT*dT*dG*eG*eA*eA*eT*eT) [compound 771785]
## Output 12%

---

Test system: human SMAD7 mRNA
Experiment: Antisense inhibition of human SMAD7 mRNA expression in Hep3B cells by 3-10-3 cEt gapmers, 10,000 nM, electroporation (Example 2)
Type: cell-based
Conditions: Hep3B cells, electroporation with 10,000 nM antisense oligonucleotide, approximately 24 hours, RTS5062, percent inhibition of SMAD7 mRNA relative to untreated control cells
Strand notation (5' to 3'): a small letter for the sugar, then the base; units joined by * are phosphorothioate-linked, units joined directly phosphodiester-linked; [ ] holds rarer units or linkages, { } end groups; capitals alone tell only the bases. k = constrained ethyl (cEt); [5mC] = 5-methylcytosine; d = 2'-deoxy (DNA)
assay.endpoint: % Inhibition (%)
Give just the numeric value; % need not be written.

## Input Recorded % Inhibition for 799664 (antisense kG*k[5mC]*k[5mC]*dA*dG*d[5mC]*dA*dA*dG*dG*dA*dT*d[5mC]*kA*kA*kA) [compound 799664] , please?
## Output 8

## Input Also need 799628 (kA*k[5mC]*kA*d[5mC]*dA*d[5mC]*dA*d[5mC]*dA*dA*dG*d[5mC]*dT*kT*kG*k[5mC]; antisense) [compound 799628] , thanks.
## Output 38

## Input Okay, and 799531 (k[5mC]*kT*kT*dT*dA*dG*d[5mC]*dA*dA*dT*dT*dT*d[5mC]*kA*kA*kA; antisense) [compound 799531] ?
## Output 32

## Input // next record 799726 (antisense kG*kT*kA*dT*d[5mC]*d[5mC]*dT*dT*dT*d[5mC]*dA*d[5mC]*dG*kA*kG*kG) [compound 799726]
## Output 49

## Input How about 799649 (antisense kA*kA*kA*dT*dG*dA*dA*dA*dG*d[5mC]*d[5mC]*d[5mC]*d[5mC]*k[5mC]*kA*kG) [compound 799649] ?
## Output 53

## Input Try this substance next: 799605 (k[5mC]*k[5mC]*kA*dA*dT*dA*dA*dA*dG*dT*dT*d[5mC]*d[5mC]*k[5mC]*kT*kT; antisense) [compound 799605]
## Output 56

## Input Try this substance next: 799589 (kA*kA*kT*dA*dT*d[5mC]*dT*dG*dT*dG*dT*d[5mC]*dT*kA*k[5mC]*kA; antisense) [compound 799589]
## Output 65

---

System: human SMAD7 mRNA
Experiment: Antisense inhibition of human SMAD7 mRNA expression in Hep3B cells by 3-10-3 cEt gapmers, 10,000 nM, electroporation (Example 2)
Assay type: cell-based
Conditions: Hep3B cells, electroporation with 10,000 nM antisense oligonucleotide, approximately 24 hours, primer probe set RTS5062, relative to untreated control cells
Protocol: Antisense oligonucleotides were designed to target human SMAD7 mRNA and were tested for their effects on SMAD7 mRNA expression in vitro. […] After a treatment period of approximately 24 hours, RNA was isolated from the cells and SMAD7 mRNA levels were measured by quantitative real-time PCR. […] SMAD7 mRNA levels were adjusted according to total RNA content, as measured by RIBOGREEN®. […]
Strand notation (5' to 3'): a small letter for the sugar, then the base; units joined by * are phosphorothioate-linked, units joined directly phosphodiester-linked; [ ] holds rarer units or linkages, { } end groups; capitals alone tell only the bases. k = constrained ethyl (cEt); [5mC] = 5-methylcytosine; d = 2'-deoxy (DNA)
assay.endpoint: % inhibition of SMAD7 mRNA expression (%)
Reply numerically in %, unit not repeated.

## Input Which % inhibition of SMAD7 mRNA expression is listed for 799425 (antisense kA*kT*kT*dA*dT*dA*dG*d[5mC]*dA*dA*dA*dA*dT*kG*kG*kA) [compound 799425] ?
## Output 23

## Input Here is the next substance: 798990 (antisense kG*kA*k[5mC]*dA*dA*dG*dT*dG*dA*dA*dA*dT*dG*kA*kT*kG) [compound 798990]
## Output 39

## Input Try the substance 799087 (antisense k[5mC]*k[5mC]*k[5mC]*d[5mC]*dG*dG*d[5mC]*dA*dG*d[5mC]*d[5mC]*d[5mC]*dT*kT*kG*kG) [compound 799087]
## Output 69

## Input And what about the substance 798658 (kA*k[5mC]*k[5mC]*d[5mC]*d[5mC]*dG*d[5mC]*dG*d[5mC]*dG*dG*d[5mC]*d[5mC]*k[5mC]*kG*k[5mC]; antisense) [compound 798658] ?
## Output 71

## Input And the next one, 799204 (antisense k[5mC]*kT*k[5mC]*dA*dG*dG*dT*dT*dT*dT*dT*dT*dT*kT*k[5mC]*kA) [compound 799204] ?
## Output 36

## Input What do you have for 772696 (kT*k[5mC]*kT*d[5mC]*dT*d[5mC]*dA*dA*dA*dG*d[5mC]*dA*d[5mC]*kT*kA*k[5mC]; antisense) [compound 772696] ?
## Output 56

## Input Thanks! And 798932 (antisense k[5mC]*kT*k[5mC]*dA*dG*dG*dA*dG*dG*dA*dA*dA*dA*kT*kA*kT) [compound 798932] ?
## Output 0

## Input Next: 799184 (antisense kA*kA*k[5mC]*d[5mC]*dT*dT*dT*dG*dT*dA*dG*dT*dT*kA*kG*kA) [compound 799184]
## Output 58

## Input Please do the same for 799147 (antisense kG*kT*kA*d[5mC]*d[5mC]*dT*dT*dG*dG*dG*dT*dT*dA*kT*kG*kA) [compound 799147] as well.
## Output 28

## Input Ok, now 799439 (antisense kA*kA*kG*dA*dG*dG*dG*dA*d[5mC]*d[5mC]*dT*d[5mC]*dG*kG*kT*kT) [compound 799439]
## Output 0

## Input Again, but for 799130 (antisense kG*kT*k[5mC]*d[5mC]*d[5mC]*dT*d[5mC]*d[5mC]*d[5mC]*dA*dG*dG*dG*kA*k[5mC]*kA) [compound 799130]
## Output 1

## Input Entry 799460 (antisense k[5mC]*kA*kA*d[5mC]*dA*dG*dA*dG*dT*d[5mC]*dT*dT*dT*kG*kA*kA) [compound 799460] please
## Output 29

## Input # iterate: 799231 (kG*k[5mC]*kT*dA*dG*dG*dT*dG*dA*dT*dA*dA*d[5mC]*kA*k[5mC]*k[5mC]; antisense) [compound 799231]
## Output 8
